- Tested on: hsa-miR-891b
- Reported Conditions: correct predictions of three independent experiments
Readout Label: correctness of microRNA prediction, 891b

> print(dat)
                                   compound                             readout.label  test.result
1  O=c1c(O)c(-c2ccc(O)c(O)c2)oc2cc(O)cc(O)c12  correctness of microRNA prediction, 891b        (2/3)
2  CC1(C)S[C@@H]2[C@H](NC(=O)[C@H](N)c3ccccc3)C(=O)N2[C@H]1C(=O)O [Ampicillin trihydrate]  correctness of microRNA prediction, 891b        (2/3)
3        Clc1cc2c(cc1Cl)Oc1cc(Cl)c(Cl)cc1O2  correctness of microRNA prediction, 891b        (2/3)
4  c1ccc2c(c1)cc1ccc3cccc4ccc2c1c34 [Benzo[a]pyere]  correctness of microRNA prediction, 891b        (3/3)

----------
- Tested on: hsa-miR-302b
- Reported Conditions: correct predictions of three independent experiments
Readout Label: correctness of microRNA prediction, 302b

> print(dat)
                                   compound  test.result
1  c1ccc2c(c1)cc1ccc3cccc4ccc2c1c34 [Benzo[a]pyere]        (2/3)
2  CC1(C)S[C@@H]2[C@H](NC(=O)[C@H](N)c3ccccc3)C(=O)N2[C@H]1C(=O)O [Ampicillin trihydrate]        (2/3)
3  O=c1c(O)c(-c2ccc(O)c(O)c2)oc2cc(O)cc(O)c12 [Quercetin]        (1/3)
4  Clc1cc2c(cc1Cl)Oc1cc(Cl)c(Cl)cc1O2 [2,3,7,8-tetrachloro dibenzo-p-dioxin]        (2/3)

----------
- System: microRNA 1262, microRNA 98 and microRNA 30c-1
- Reported Conditions: number of the three microRNAs predicting correctly
Each record here notes measured Aggregate result, correct.
Readout Label: Aggregate result, correct

> print(dat)
                                   compound              readout.label  test.result
1  CC1(C)S[C@@H]2[C@H](NC(=O)[C@H](N)c3ccccc3)C(=O)N2[C@H]1C(=O)O [Ampicillin trihydrate]  Aggregate result, correct          3/3
2  C[C@]12CC[C@@H]3c4ccc(O)cc4CC[C@H]3[C@@H]1CC[C@@H]2O  Aggregate result, correct          3/3
3              N.N.[Cl][Pt][Cl] [Cisplatin]  Aggregate result, correct          3/3
4        Clc1cc2c(cc1Cl)Oc1cc(Cl)c(Cl)cc1O2  Aggregate result, correct          3/3
5  c1ccc2c(c1)cc1ccc3cccc4ccc2c1c34 [Benzo[a]pyere]  Aggregate result, correct          3/3
6  O=c1c(O)c(-c2ccc(O)c(O)c2)oc2cc(O)cc(O)c12  Aggregate result, correct          2/3

----------
- Test system: hsa-miR-888*
- Reported Conditions: correct predictions of three independent experiments
Readout Label: correctness of microRNA prediction, 888*

> print(dat)
                                   compound  test.result
1  O=c1c(O)c(-c2ccc(O)c(O)c2)oc2cc(O)cc(O)c12        (1/3)
2        Clc1cc2c(cc1Cl)Oc1cc(Cl)c(Cl)cc1O2        (1/3)
3  c1ccc2c(c1)cc1ccc3cccc4ccc2c1c34 [Benzo[a]pyere]        (2/3)
4  CC1(C)S[C@@H]2[C@H](NC(=O)[C@H](N)c3ccccc3)C(=O)N2[C@H]1C(=O)O [Ampicillin trihydrate]        (3/3)

----------
- System: hsa-miR-502-3p
- Reported Conditions: correct predictions of three independent experiments
Readout Label: correctness of microRNA prediction, 502-3p

> print(dat)
                                   compound  test.result
1  CC1(C)S[C@@H]2[C@H](NC(=O)[C@H](N)c3ccccc3)C(=O)N2[C@H]1C(=O)O [Ampicillin trihydrate]        (3/3)
2        Clc1cc2c(cc1Cl)Oc1cc(Cl)c(Cl)cc1O2        (2/3)
3  c1ccc2c(c1)cc1ccc3cccc4ccc2c1c34 [Benzo[a]pyere]        (2/3)
4  O=c1c(O)c(-c2ccc(O)c(O)c2)oc2cc(O)cc(O)c12        (1/3)

----------
- Test system: hsa-miR-1229
- Reported Conditions: correct predictions of three independent experiments
Readout Label: correctness of microRNA prediction, 1229

> print(dat)
                                   compound  test.result
1        Clc1cc2c(cc1Cl)Oc1cc(Cl)c(Cl)cc1O2        (2/3)
2  CC1(C)S[C@@H]2[C@H](NC(=O)[C@H](N)c3ccccc3)C(=O)N2[C@H]1C(=O)O [Ampicillin trihydrate]        (3/3)
3  c1ccc2c(c1)cc1ccc3cccc4ccc2c1c34 [Benzo[a]pyere]        (3/3)
4  O=c1c(O)c(-c2ccc(O)c(O)c2)oc2cc(O)cc(O)c12        (1/3)
